The measurements presented in this section are drawn from ChEMBL document CHEMBL1151577.

The following compounds are shown together with reported Concentration causing nonspecific degranulation (MPO release) values.
molecular target: UniProt:P21730; test: Nonspecific degranulation of polymorho neutrophils as measured by myeloperoxidase (MPO) release in a whole functional cell assay
Report only the number, with the unit µg/mL understood.

Compound: CC[C@H](C)C[C@H]1CC[C@](O)([C@](C)(O)C(=O)N[C@@H]2C(=O)N3NCCC[C@@H]3C(=O)N(OCc3ccccc3)[C@@H](C)C(=O)NCC(=O)N3NCCC[C@H]3C(=O)N(O)[C@H](C)C(=O)O[C@H]2C(C)C)O[C@@H]1C
Measured value: 0.6
//
Compound: CCC(C)C[C@H]1CC[C@H]([C@](C)(O)C(=O)N[C@@H]2C(=O)N3NCCC[C@@H]3C(=O)N(O)[C@@H](C)C(=O)NCC(=O)N3NCCC[C@H]3C(=O)N(O)[C@H](C)C(=O)O[C@H]2C(C)C)O[C@@H]1C (single isomer, unassigned)
Measured value: 0.3
//
Compound: CC[C@H](C)C[C@H]1CC[C@](O)([C@](C)(O)C(=O)N[C@@H]2C(=O)N3NCCC[C@@H]3C(=O)N(OC)[C@@H](C)C(=O)NCC(=O)N3NCCC[C@H]3C(=O)N(O)[C@H](C)C(=O)O[C@H]2C(C)C)O[C@@H]1C
Measured value: 0.3
//
Compound: CC[C@H](C)C[C@H]1CC[C@](O)([C@](C)(O)C(=O)N[C@@H]2C(=O)N3NCCC[C@@H]3C(=O)N(OC)[C@@H](C)C(=O)NCC(=O)N3NCCC[C@H]3C(=O)N(OC)[C@H](C)C(=O)O[C@H]2C(C)C)O[C@@H]1C
Measured value: 3

Below: the item to evaluate.
Entry CC[C@H](C)C[C@H]1CC[C@](O)([C@](C)(O)C(=O)N[C@@H]2C(=O)N3NCCC[C@@H]3C(=O)N(O)[C@@H](C)C(=O)NCC(=O)N3NCCC[C@H]3C(=O)N(O)[C@H](C)C(=O)O[C@H]2C(C)C)O[C@@H]1C — recorded Concentration causing nonspecific degranulation (MPO release) = 0.27

###

molecular target: C5a anaphylatoxin chemotactic receptor 1 (Homo sapiens) (UniProt P21730); test: Nonspecific degranulation of polymorho neutrophils as measured by myeloperoxidase (MPO) release in a whole functional cell assay
Sequence (P21730 whole entry): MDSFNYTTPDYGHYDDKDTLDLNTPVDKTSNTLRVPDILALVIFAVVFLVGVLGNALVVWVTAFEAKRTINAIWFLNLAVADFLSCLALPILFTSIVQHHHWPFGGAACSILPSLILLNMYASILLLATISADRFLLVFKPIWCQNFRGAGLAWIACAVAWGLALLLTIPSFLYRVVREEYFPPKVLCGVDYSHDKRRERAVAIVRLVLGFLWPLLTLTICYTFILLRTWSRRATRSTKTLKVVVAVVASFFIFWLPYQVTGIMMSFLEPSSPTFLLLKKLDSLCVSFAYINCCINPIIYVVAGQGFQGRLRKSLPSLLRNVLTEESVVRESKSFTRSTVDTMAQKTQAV
Observed property: Concentration causing nonspecific degranulation (MPO release)

Entry CC[C@H](C)C[C@H]1CC[C@](O)([C@](C)(O)C(=O)N[C@@H]2C(=O)N[C@H](CCCN)C(=O)N(O)[C@@H](C)C(=O)NCC(=O)N3NCCC[C@H]3C(=O)N(O)[C@H](C)C(=O)O[C@H]2C(C)C)O[C@@H]1C — recorded Concentration causing nonspecific degranulation (MPO release) = > 200 µg/mL

Entry CC(=O)C(=O)N[C@@H]1C(=O)N2NCCC[C@@H]2C(=O)N(O)[C@@H](C)C(=O)NCC(=O)N2NCCC[C@H]2C(=O)N(O)[C@H](C)C(=O)O[C@H]1C(C)C — recorded Concentration causing nonspecific degranulation (MPO release) = > 13 µg/mL

Entry CC[C@H](C)C[C@H]1CC[C@](O)([C@](C)(O)C(=O)N[C@@H]2C(=O)N3NCCC[C@@H]3C(=O)N(O)[C@@H](C)C(=O)N[C@H](C)C(=O)N3NCCC[C@H]3C(=O)N(O)[C@H](C)C(=O)O[C@H]2C(C)C)O[C@@H]1C — recorded Concentration causing nonspecific degranulation (MPO release) = > 100 µg/mL

Entry CCC(C)C[C@H]1CC[C@](O)([C@](C)(O)C(=O)N[C@@H]2C(=O)N3NCCC[C@@H]3C(=O)N[C@@H](C)C(=O)NCC(=O)N3NCCC[C@H]3C(=O)N[C@H](C)C(=O)O[C@H]2C(C)C)O[C@@H]1C (single isomer, unassigned) — recorded Concentration causing nonspecific degranulation (MPO release) = > 50 µg/mL
